Where do the numbers come from? From the RNAGym collection of RNA variant scans (doi:10.7554/elife.90254).

I'd be grateful if you could share measured self-cleavage for these entries.
B1: LINE1-full (parent)
chain: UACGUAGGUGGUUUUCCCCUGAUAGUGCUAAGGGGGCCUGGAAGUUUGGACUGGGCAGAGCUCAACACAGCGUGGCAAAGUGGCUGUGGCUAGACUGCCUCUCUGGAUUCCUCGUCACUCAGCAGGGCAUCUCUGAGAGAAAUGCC

variants of: B1; assay: self-cleavage, relative activity (ratio to wild type); higher = more cleavage; in vitro, sequencing; the parent is a self-cleaving ribozyme
One number for each entry.

Completed entries (count: 4):
>>> value("U109G")
0.63
>>> value("C101U U102G")
0.3
>>> value("U9G A65G")
0.25
>>> value("C56U U132C")
0.2

Hi there! I need self-cleavage for each item below, if you can.
1. G36U A94G
2. U9C U45G
3. A31G C37A
4. C56U A69U
5. A2C A142G

Response:
0.12
1.56
1.32
0.02
1.78

Hi there! I need self-cleavage for each item below, if you can.
1. G114A C116U
2. C3G A57U
3. U23C U104C

Response:
[0.76, 0, 1.78]

Hi there! I need self-cleavage for each item below, if you can.
1. U23G G122U
2. G8A G44A
3. G32A A124U
4. U39C U45A
5. U13C U112A
6. C19U G125U
7. U26C C111A
8. U46G U96C

Response:
1: 1.17; 2: 1.08; 3: 0; 4: 0.87; 5: 1.05; 6: 1.81; 7: 1.04; 8: 0.74

Hi there! I need self-cleavage for each item below, if you can.
1. U45A U112C
2. A6U A140G

Response:
1: 1.36; 2: 0.77
